Where do these numbers come from? They come from patent US20240076387A1.

targetUnderTest: T1, Flt-1 antigen (species not stated) (Homo sapiens (Human), UniProt P17948 27-656)
T1 construct: also called sFlt-1; soluble Flt-1
T1 sequence (P17948 other isoform, or with tags, fused parts or gaps limits assumed, form in doubt): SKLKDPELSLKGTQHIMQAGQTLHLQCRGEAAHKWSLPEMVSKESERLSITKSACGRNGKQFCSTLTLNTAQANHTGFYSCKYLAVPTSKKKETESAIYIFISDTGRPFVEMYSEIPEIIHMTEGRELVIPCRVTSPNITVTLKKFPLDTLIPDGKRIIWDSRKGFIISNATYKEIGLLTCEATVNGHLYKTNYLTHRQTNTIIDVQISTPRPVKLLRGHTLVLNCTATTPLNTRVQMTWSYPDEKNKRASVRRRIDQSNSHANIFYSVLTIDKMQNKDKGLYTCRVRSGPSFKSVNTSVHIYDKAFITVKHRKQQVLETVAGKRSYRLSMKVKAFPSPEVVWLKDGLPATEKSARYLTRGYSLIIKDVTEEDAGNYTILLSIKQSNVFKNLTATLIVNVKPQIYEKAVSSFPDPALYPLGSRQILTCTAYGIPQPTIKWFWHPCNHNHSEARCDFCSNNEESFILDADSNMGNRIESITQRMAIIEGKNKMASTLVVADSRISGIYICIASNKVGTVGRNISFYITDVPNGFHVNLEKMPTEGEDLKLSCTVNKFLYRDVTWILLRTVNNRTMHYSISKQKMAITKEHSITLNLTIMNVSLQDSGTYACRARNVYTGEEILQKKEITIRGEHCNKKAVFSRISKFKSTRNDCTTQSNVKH
testSummary: off-rate of Fabs, method not stated
Kindly state kd IMPROVEMENT (against parent 21B3) for each of the entries shown.

>>> reported("25G9 Fab (Fab, V domains shown, also called 25G9_VH) VH: EVQLLESGGGLVQPGGSLRLSCAASGFTFRDYSMSWVRQAPGKGLEWVSAITWSGDSTYYAESVKGRFTISRDNSKNTLYLQMNSLRAEDTAVYYCAKSWATPIESLYYYGTDYWGKGTLVTVSS VL: SYELTQPLSVSVALRQAARITCGGNNIGSQTAQWYQQKPGQAPVLVIYANNRRPSGIPERFSGSKSGNTATLTISRAQAEDEADYYCQVWDDSTQAIVFGGGTKLTVL")
0.97

Now look at this one.
Query :: Can you look up the measured kd IMPROVEMENT (against parent 21B3) of 25F11 Fab (Fab, V domains shown, also called 25F11_VH) VH: EVQLLESGGGLVQPGGSLRLSCAASGFTFRDYSMSWVRQAPGKGLEWVSAISWNGDSTYYAESAKGRFTISRDNSKNTLYLQMNSLRAEDTAVYYCAKSWATPIESLYYYGSDYWGQGTLVTVSS VL: SYELTQPLSVSVALRQAARITCGGNNIGSQTAQWYQQKPGQAPVLVIYANNRRPSGIPERFSGSKSGNTATLTISRAQAEDEADYYCQVWEASTQAIVFGGGTKLTVL for me?
Result :: 1
